Sourced from patent US20120316071A1

Biological target: T1, Recombinant Human DLL4 (delta-like protein 4) (human, UniProt Q9NR61 27-524)
T1 construct: also called rHuman DLL4; Delta-like 4
Experiment: ECL (MSD) binding assay, DLL4 immobilised, Fab at 10 nM
reported-property: Signal [10 nM Fab]

Input Fab VH1-46_IGHD6-6*01_IGHJ1*01 S102A/S103P/S104F/H111F & L6_IGKJ1*01 N53A (Fab, V domains shown, also called APFF & L6_IGKJ1*01 N53A) VH: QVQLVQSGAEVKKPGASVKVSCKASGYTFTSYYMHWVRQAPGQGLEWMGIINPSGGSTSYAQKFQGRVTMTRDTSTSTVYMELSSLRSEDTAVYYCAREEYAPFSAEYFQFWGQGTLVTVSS VL: EIVLTQSPATLSLSPGERATLSCRASQSVSSYLAWYQQKPGQAPRLLIYDASARATGIPARFSGSGSGTDFTLTISSLEPEDFAVYYCQQRSNWPPWTFGQGTKVEIKR . Output Signal [10 nM Fab]: 14200

Input Fab VH1-46_IGHD6-6*01_IGHJ1*01 S102A/S103P/S104F/H111F & L6_IGKJ1*01 R54A (Fab, V domains shown, also called APFF & L6_IGKJ1*01 R54A) VH: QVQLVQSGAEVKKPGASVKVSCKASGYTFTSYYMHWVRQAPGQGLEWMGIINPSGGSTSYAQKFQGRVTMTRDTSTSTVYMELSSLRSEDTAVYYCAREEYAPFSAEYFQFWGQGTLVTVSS VL: EIVLTQSPATLSLSPGERATLSCRASQSVSSYLAWYQQKPGQAPRLLIYDASNAATGIPARFSGSGSGTDFTLTISSLEPEDFAVYYCQQRSNWPPWTFGQGTKVEIKR . Output Signal [10 nM Fab]: 11600

Input Fab VH1-46_IGHD6-6*01_IGHJ1*01 S102A/S103P/S104F/H111F & L6_IGKJ1*01 A55T (Fab, V domains shown, also called APFF & L6_IGKJ1*01 A55T) VH: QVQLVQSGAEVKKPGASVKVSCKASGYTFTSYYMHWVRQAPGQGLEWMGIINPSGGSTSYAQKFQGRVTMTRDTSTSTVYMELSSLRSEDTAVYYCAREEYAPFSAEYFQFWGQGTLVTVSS VL: EIVLTQSPATLSLSPGERATLSCRASQSVSSYLAWYQQKPGQAPRLLIYDASNRTTGIPARFSGSGSGTDFTLTISSLEPEDFAVYYCQQRSNWPPWTFGQGTKVEIKR . Output Signal [10 nM Fab]: 13200
